Molecular target: T1, human CD70, recombinant, N-terminally biotinylated (residues 39-193) (human, UniProt P32970 39-193, N-terminal biotin)
T1 construct: range 39-193; the same entry is used there; also called biotinylated human CD70; CD70 biotin
T1 sequence (looked up): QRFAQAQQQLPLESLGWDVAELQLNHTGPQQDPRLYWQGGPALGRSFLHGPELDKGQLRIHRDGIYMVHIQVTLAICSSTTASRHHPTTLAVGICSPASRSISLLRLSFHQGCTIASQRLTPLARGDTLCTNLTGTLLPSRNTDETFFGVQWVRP
Experiment: SPR
Outcome Measure: log10(Kd) (log10 of the value in nM)
Units before log transform: nM; reported quantity: Kd; transform: log10.

Provide the reported log10(Kd) of each entry below, same order.
1. 62-TC7-V-D08 (scFv, His-tagged) scFv: QVQLQQWGAGLLKPSETLSLTCAVYGGSFSGYYWSWIRQPPGKGLEWIGEINHSGSTNYNPSLKSRVTISVDTSKNQFSLKLSSVTAADTAVYYCARVARGKGAFDIWGQGTMVTVSSGGSGGSGGSGGSQSALTQPASVSGSPGQSITISCTGTSSDVGGYNYVSWYQQHPGKAPKLLIYEVSSRPSGVSNRFSGSKSGNTASLTISGLQAEDEADYYCNSYTNSGSWVFGGGTKVTVL
2. 56-TC7-VI-H08 (scFv, His-tagged) scFv: QMQLVQSGAEVKKPGASVKVSCKASGYTFTSYYMHWVRQAPGQGLEWMGIINPSGGSTSYAQKFQGRVTMTRDTSTSTAYMELRSLRSDDTAVYYCARGWETNDAFDIWGQGTMVTVSSGGSGGSGGSGGSQSVLTQPPSVSGAPGQKVTISCSGSNSNVGNHYLSWYQHLPGTAPRLLIFDNNKRPSGIPDRFSGSKSGASATLDITGLQTGDEADYFCGTWDSRLNVWVFGGGTKLTVL
3. 30-TC1.2-I-C08-1 (scFv, His-tagged) scFv: QMQLVQSGAEVKKPGASVKVSCKASGYTFTSYGISWVRQAPGQGLEWMGWINPNTGGTDYAQKFQGRVTITRDTSITTGYMELSRLRSDDTAVYYCARHYYYGMDVWGQGTTVTVSSGGSGGSGGSGGSDIQLTQSPSSLSASVGDRVTITCQASQDISNYLNWYQQKPGKAPKLLIYDASNLETGVPSRFSGSGSGTDFTFTISSLQPEDIATYYCQQYDNLPLTFGGGTKVEIK
4. 43-TC4-VII-C04 (scFv, His-tagged) scFv: QVQLLESGGGLVQPGRSLRLSCAASGFTFDDYAMHWVRQAPGKGLEWVSGISWNSGSIGYADSVKGRFTISRDNAKNSLYLQMNSLRAEDTAVYYCARDLVYYYGMDVWGQGTTVTVSSGGSGGSGGSGGSQSVLTQPPSVSGTPGQGVSISCSGSSSNIGWKTVNWYQQVPGMAPKLLIYSDNQRPSGVPDRFSGSKSATSASLAISGLQSEDEADYYCASWDASVNAPVFGGGTKLTVL

Ans:
1. 2.29
2. 2.73
3. 1.83
4. 1.84

Provide the reported log10(Kd) of each entry below, same order.
1. 35-TC6-VII-A09 (scFv, His-tagged) scFv: EVQLVQSGGGVVQPGRSLRLSCAASGFTFSSYGMHWVRQAPGKGLEWVAVISYDGSNKYYADSVKGRFTISRDNSKNTLYLQMNSLRAEDTAVYYCAKAGAPPHYYYGMDVWGQGTTVTVSSGGSGGSGGSGGSQSALTQPASVSGSPGQSITISCTGTSSDVGGYDYVSWYQQHPGKAPKLMIYEVTDRPSGIPNRFSGSKSGNTASLTISGLQAEDEADYYCSSYTYTSTLEVFGGGTKVTVL
2. 61-TC7-IV-H08 (scFv, His-tagged) scFv: QMQLVQSGGGLVQPGRSLRLSCAASGFTFDDYAMHWVRQAPGKGLEWVAVISYDGSNKYYADSVKGRFTISRDNSKNTLYLQMNSLRAEDTAVYYCARSSYDFWSGYPKDMDVWGKGTTVTVSSGGSGGSGGSGGSSSELTQDPAVSVALGQTVRITCQGDSLRSYYASWYQQKPGQAPVLVIYGKNNRPSGIPDRFSGSSSGNTASLTITGAQAEDEADYYCNSRDSSGNHLVVFGGGTKLTVL
3. 47-TC7-III-D10 (scFv, His-tagged) scFv: QVQLVQSGAEVKKPGASVKVSCKASGYTFTSYGISWVRQAPGQGLEWMGWISAYNGNTNYAQKLQGRVTMTTDTSTSTAYMELRSLRSDDTAVYYCARDSSSWYYYYGMDVWGQGTTVTVSSGGSGGSGGSGGSSYELTQPPSVSVSPGQTARISCSGDALPNQYAYWYQQKPGQAPVLVIYQDSERPSGIPERFSGSSSGTTVTLTISGVQAEDEADYYCQSADTYGTSWVFGGGTKLTVL
4. 57-TC7-VII-A03 (scFv, His-tagged) scFv: QVQLQQSGPGLVKASETLSLTCAVSGHSISSSNYWGWIRQPPGKGLEWIGSIYHSGTTYYNPSLKSRVTMSVDTSKNQFSLKLSSVTAADTAVYYCARHGSGDLGYLEYWGQGTLVTVSSGGSGGSGGSGGSSYELTQSPSVSVAPGKTARITCGGNNIGSKSVHWYQQKPGQAPVLVIYYDSDRPSGIPERFSGSNSGNTATLTISRVEAGDEADYYCQVWDSSSDHPVFGGGTKVTVL
5. 54-TC7-V-D10 (scFv, His-tagged) scFv: QVQLQQWGAGLLKPSETLSLTCAVYGGSFSGYYWSWIRQPPGKGLEWIGEINHSGSTNYNPSLKSRVTISVDTSKNQFSLKLSSVTAADTAVYYCARGGYRSYWYFDLWGRGTLVTVSSGGSGGSGGSGGSQSALTQPASVSGSPGQSITISCTGTSSDVGGYNSVSWYQHHPGKAPKLMIYDVSDRPSGVSDRFSGSKSGNTASLTISGLQAEDEADYYCSSYAGSNNVVFGGGTKVTVL
6. 1-TC4-I-C10 (scFv, His-tagged; also called 1867) scFv: EVQLVQSGAEVKKPGESLKISCKGSGYSFTSYWIGWVRQMPGKGLEWMGIIYPGDSDTRYSPSFQGQVTISADKSISTAYLQWSSLKASDTAMYYCAISRTESYVMDVWGQGTTVTVSSGGSGGSGGSGGSQSALTQPRSVSGSPGQSVTISCTGTSSDVGGYNYVSWYQQHPGKAPKLMIYDVTNRPSGVPDRFSASKSDNTATLTVSGVQAEDEADYYCSSYAGSHELFGGGTKLTVL

Ans:
1: 2.56; 2: 2.52; 3: 1.27; 4: 2.93; 5: 2.32; 6: 0.79
